Where do the numbers come from? From patent US10479793B2.

# Tested on: IFNα stimulated Kit225 T cells with a stably-integrated STAT-dependent luciferase reporter
# EXPERIMENT_SUMMARY: Kit225 T cell assay, IFNα stimulated STAT-dependent luciferase reporter
# Type: cell-based, human
# RUN_CONDITIONS: KIT225; 200 U/mL human recombinant IFNα, 5-6 hours, luciferase; read-out: IFNa Kit225 Reporter, (IC50)
pIC50: −log10 of the molar value.
METRIC: pIC50

Study these solved cases before continuing.
{"columns": ["COMPOUND", "ASSAY_SYSTEM", "RESULT"],
 "data": [
  ["CNc1cc(Nc2cccc(-n3ccc(C(F)(F)F)n3)n2)nn2c(C(=O)NC3CC3)cnc12", "IFNα stimulated Kit225 T cells with a stably-integrated STAT-dependent luciferase reporter", 6.36],
  ["Cc1cc(C)cc(Nc2cc(Nc3cncs3)c3ncc(C(N)=O)n3n2)c1", "IFNα stimulated Kit225 T cells with a stably-integrated STAT-dependent luciferase reporter", 5.71],
  ["CNc1cc(Nc2cccnc2OC)nn2c(C(=O)NCCF)cnc12", "IFNα stimulated Kit225 T cells with a stably-integrated STAT-dependent luciferase reporter", 7.22]
]}

[I] CNc1cc(Nc2c(F)c(F)cc(F)c2F)nn2c(C(=O)NCC(C)(C)O)cnc12
[II] CCNC(=O)c1cnc2c(NC3CC3)cc(Nc3cc(C#N)cc(C(F)(F)F)c3)nn12
[III] CNc1cc(Nc2cccc(-c3ccc(C(F)(F)F)cc3F)c2)nn2c(C(=O)NC3CC3)cnc12
hey, can you rank those compounds up there by pIC50? biggest number first please I would appreciate it if you listed the labels in the requested order.
I, III, II
(I: 6.68, III: 5.92, II: 4.90)
